- System: Mycobacterium tuberculosis
- Protocol Summary: Antimicrobial activity against p-aminosalicylic acid/isonicotinic acid hydrazide/etambutol/rifampicin sensitive Mycobacterium tuberculosis Spec. 192 by classical test tube method
- Assay type: functional
Label Satisfied when MIC is strictly below 90 µM; at or above that, label Not satisfied.

# example entries with known answers
COc1cccc(-n2cc(CN3CCCN(c4noc5ccccc45)CC3)nn2)c1	Not satisfied
FC(F)(F)c1cccc(-n2cc(CN3CCN(c4noc5ccccc45)CC3)nn2)c1	Satisfied
O=[N+]([O-])c1ccc(-n2cc(CN3CCCN(c4noc5ccccc45)CC3)nn2)cc1	Not satisfied

q: Given the entry Fc1ccc(-n2cc(CN3CCCN(c4noc5ccccc45)CC3)nn2)cc1 , would its reported MIC be below 90 µM?
a: Not satisfied

q: And for CCc1ccc(-n2cc(CN3CCN(c4noc5ccccc45)CC3)nn2)cc1 ?
a: Not satisfied

---

- Test system: RAW264.7
- Protocol Summary: Cytotoxicity against mouse RAW264.7 cells assessed as inhibition of cell viability after 72 hrs by CellTiter 96 non radioactive cell proliferation assay
- Assay type: cell-based
- Condition Context: RAW264.7, 72 h
Property: pIC50
To interpret pIC50, take it as minus log10 of a concentration measured in moles per litre.

Some solved entries appear below for comparison.
FC(F)(F)c1cc(-n2cc(CN3CCCN(c4noc5ccccc45)CC3)nn2)ccc1Br	3.74
FC(F)(F)c1cc(-n2cc(CN3CCN(c4noc5ccccc45)CC3)nn2)ccc1Br	3.65
FC(F)(F)c1cccc(-n2cc(CN3CCN(c4noc5ccccc45)CC3)nn2)c1	3.52

Next:
q: For FC(F)(F)c1cccc(-n2cc(CN3CCCN(c4noc5ccccc45)CC3)nn2)c1 , what is its reported pIC50?
a: 3.75

---

- Protocol Summary: Cytotoxicity against mouse RAW264.7 cells assessed as inhibition of cell viability at 96.13 uM after 72 hrs by CellTiter 96 non radioactive cell proliferation assay
- Type: cell-based
Property: inhibition at 72 h, 96.13 µM
The reply should read as a number followed by its unit.

q: If you can, please state the reported inhibition at 72 h, 96.13 µM value of FC(F)(F)c1cc(-n2cc(CN3CCCN(c4noc5ccccc45)CC3)nn2)ccc1Br .
a: 26.5%

---

Catalogue of MIC values
- System: Mycobacterium tuberculosis
- Protocol Summary: Antimicrobial activity against p-aminosalicylic acid/isonicotinic acid hydrazide/etambutol/rifampicin sensitive Mycobacterium tuberculosis Spec. 192 by classical test tube method
- Type: functional

O=C(Cc1c[nH]c2ccccc12)N1CCN(c2noc3ccccc23)CC1	> 200 µM
COc1ccc(-n2cc(CN3CCN(c4noc5cc(Cl)ccc45)CC3)nn2)cc1	118 µM
C#CCN1CCN(c2noc3ccccc23)CC1	> 200 µM
C#CCN1CCCN(c2noc3ccccc23)CC1	196 µM
COc1ccc(-n2cc(CN3CCCN(c4noc5ccccc45)CC3)nn2)cc1	> 200 µM
O=C(CCc1c[nH]c2ccccc12)N1CCN(c2noc3cc(Cl)ccc23)CC1	> 200 µM
COc1cccc(-n2cc(CN3CCN(c4noc5ccccc45)CC3)nn2)c1	128 µM
O=[N+]([O-])c1ccc(-n2cc(CN3CCN(c4noc5ccccc45)CC3)nn2)cc1	> 200 µM

q: Which measured MIC value corresponds to O=C(CCCc1c[nH]c2ccccc12)N1CCN(c2noc3cc(Cl)ccc23)CC1 ?
a: > 200 µM

q: Follow-up item: Brc1ccc(-n2cc(CN3CCCN(c4noc5ccccc45)CC3)nn2)cc1
a: > 200 µM

q: Moving on to the next compound: O=C(CCc1c[nH]c2ccccc12)N1CCN(c2noc3ccccc23)CC1
a: > 200 µM
